System: Human platelets
assay.overview: Inhibition of induced threshold aggregation of human platelets (agonist U44069)
Format: cell-based
test.context: human platelet rich plasma, aggregating agent U44069; read-out: Inhibition of platelet aggregation (IC50 in mg/ml)
quantity.kind: IC50 (µg/mL)

[
  {
    "compound": "COc1ccc2c(c1)c1c(n2Cc2ccc(Cl)cc2)CC(CC(=O)O)CC1 (stereo not shown) [Compound A, reference compound]",
    "quantity.kind": "IC50",
    "readout.units": "µg/mL",
    "readout.number": 3.5
  }
]

(I) O=C(O)CC1CCCCc2c1n(Cc1ccc(Cl)cc1)c1ccc(F)cc21 (stereo not shown)
(II) O=C(O)CC1CCCCc2c1c1cc(F)ccc1n2Cc1ccc(Cl)cc1 (stereo not shown)
Q: Task for the reader: decide whether I or II has the larger IC50. # respond with the chosen item's label
Result: II

(I) CS(=O)(=O)c1ccc(Cn2c3c(c4cc(F)cc(F)c42)CCCC(CC(=O)O)C3)cc1 (stereo not shown)
(II) O=C(O)C1CCCc2c(n(Cc3ccc(Cl)cc3)c3ccc(F)cc23)C1 (stereo not shown)
Q: Looking at recorded values for IC50, does I or II come in lower? # respond with the chosen item's label
Result: I
